# run-description: Metabolic stability in human liver microsomes
# Format: in vitro ADME
# measurement-conditions: human, microsomes

{"columns": ["compound", "half-life at 2 μg/mL"],
 "data": [
  ["C[C@H](CCCN1CCCCC1)[C@H]1CC[C@@]2(C)C3CC[C@H]4C(C)(C)[C@@H](O)CC[C@@]45C[C@@]35CC[C@]12C (stereo partly drawn) [Compound 27]", "11.7 h"],
  ["CC(C)=CCC[C@@H](C)[C@H]1CC[C@@]2(C)C3CC[C@H]4C(C)(C)[C@@H](O)CC[C@@]45C[C@@]35CC[C@]12C (stereo partly drawn) [Compound 2]", "1.18 h"],
  ["C[C@H](CCCNCCOCCOCCOCCOCCOCCOCCOCCOCCOCCOCCOCCO)[C@H]1CC[C@@]2(C)C3CC[C@H]4C(C)(C)[C@@H](O)CC[C@@]45C[C@@]35CC[C@]12C (stereo partly drawn) [Compound 33]", "1.07 h"]
]}

* * *

# run-description: in vivo
# measurement-conditions: mouse, po, 100 mg/kg
measurement-label: AUC(0-t) (ng·h/mL)

{"columns": ["molecule", "measurement-label", "measured"],
 "data": [
  ["C[C@H](CCCN1CCCCC1)[C@H]1CC[C@@]2(C)C3CC[C@H]4C(C)(C)[C@@H](O)CC[C@@]45C[C@@]35CC[C@]12C (stereo partly shown)", "AUC(0-t)", 7750]
]}

* * *

# run-description: Metabolic stability in human liver microsomes
# Assay type: in vitro ADME
# measurement-conditions: human liver microsomes 0.5 mg/mL, 2 μg/mL compound, NADPH; read-out: CLint (μL/min/mg protein) human

{"columns": ["compound", "unit-annotation", "microsomal CLint at 2 μg/mL"],
 "data": [
  ["CC(C)NCCC[C@@H](C)[C@H]1CC[C@@]2(C)C3CC[C@H]4C(C)(C)[C@@H](O)CC[C@@]45C[C@@]35CC[C@]12C (stereo partly shown)", "µL/min/mg", 3.04]
]}

* * *

Entries annotated with measured half-life at 2 μg/mL
# run-description: Metabolic stability in mouse liver microsomes
# Assay type: in vitro ADME
# measurement-conditions: mouse, microsomes
measurement-label: half-life at 2 μg/mL (h)

{"columns": ["compound", "measured"],
 "data": [
  ["C[C@H](CCCNCCOCCOCCOCCOCCOCCOCCOCCOCCOCCOCCOCCO)[C@H]1CC[C@@]2(C)C3CC[C@H]4C(C)(C)[C@@H](O)CC[C@@]45C[C@@]35CC[C@]12C (stereo partly drawn)", 1.1],
  ["CC(C)=CCC[C@@H](C)[C@H]1CC[C@@]2(C)C3CC[C@H]4C(C)(C)[C@@H](O)CC[C@@]45C[C@@]35CC[C@]12C (stereo partly drawn)", 1.88],
  ["C[C@H](CCCN1CCCCC1)[C@H]1CC[C@@]2(C)C3CC[C@H]4C(C)(C)[C@@H](O)CC[C@@]45C[C@@]35CC[C@]12C (stereo partly drawn)", 10.2]
]}
